- assay: chemical genetic growth profiling, strain panel (AID 1159580);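 further: tested at 20 µM; growth read once vehicle control cultures reached saturation at 30 °C; lower values mean less growth of the strain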
- condition.details: S. cerevisiae deletion strains, growth OD, locus YMR307W, strain GAS1, hits give low values
Screen size: about 5,500 compounds; about 2,000 (36%) were called active. Inconclusive results (about 18%) are left out. The list shows a part of the results.
Just a reminder that ties go to Not fulfilled: only normalized growth strictly below 1 counts as Fulfilled.

INSERT INTO results (molecule, category) VALUES
  ('CC1=C2C(=CO[C@H](C)[C@H]2C)C(=O)C(C(=O)O)=C1O', 'Fulfilled'),
  ('Clc1ccc(-c2csc(-c3ccno3)n2)s1', 'Fulfilled');

Could you now look at the following molecule, please?
Please check: normalized growth for CC(=O)O[C@H]1C[C@@]2(C)[C@H](c3ccoc3)OC(=O)[C@H]3O[C@]32[C@@]2(C)C1[C@]1(C)C(C[C@H]2OC(C)=O)C(C)(C)[C@H](OC(C)=O)C[C@@H]1OC(C)=O (stereo not given in full) , strictly under 1 or not? Not fulfilled
